- method: bioavailability of IP3 in pigs: concentration of IP3 in blood samples and AUC after intravenous injection, intraduodenal/oral formulation and oral sodium salt
- test_parameters: pig, in vivo, po
Counter-ions that a name gives are not always drawn.

compound | concentration at 6 h, nM
O=P(O)(O)O[C@@H]1[C@H](OP(=O)(O)O)[C@H](O)[C@@H](O)[C@H](O)[C@H]1OP(=O)(O)O [sodium salt of IP3, D-myo-inositol-1,2,6-trisphosphate] | 400

====

- method: bioavailability of IP3 in pigs: concentration of IP3 in blood samples and AUC after intravenous injection, intraduodenal/oral formulation and oral sodium salt
- test_parameters: pig, in vivo, po
Counter-ions that a name gives are not always drawn.
endpoint_name: concentration at 2 h (nM)

molecule | endpoint_name | observed_measurement
O=P(O)(O)O[C@@H]1[C@H](OP(=O)(O)O)[C@H](O)[C@@H](O)[C@H](O)[C@H]1OP(=O)(O)O [sodium salt of IP3, D-myo-inositol-1,2,6-trisphosphate] | concentration at 2 h | 600

Recorded values, source patent US5760022A.
